Measured interaction score, listed per entry for reference.
# targetDesc: T1, 4H94-AA
# T1 chain: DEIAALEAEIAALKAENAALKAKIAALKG
# assayProcedure: two-hybrid library CCmax;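 also: natural log of median RNA to DNA barcode read ratio; higher means stronger binding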
# protocolConditions: mean of both orientations
quantityKind: interaction score

# binder, quantityKind, testResult
measured = [
    ("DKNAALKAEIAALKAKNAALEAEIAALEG [4H3697-AA]", "interaction score", 1.01),
    ("DKNAALKAENAALEAKIAALKAEIAALEG [4H3753-AA]", "interaction score", -1.45),
    ("DKNAALKAKIAALEAENAALKAEIAALEG [4H3865-AA]", "interaction score", 1.56),
    ("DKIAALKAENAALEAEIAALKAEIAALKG [4H2698-AA]", "interaction score", -0.915),
]
